These measurements were taken from patent US10208066B2.

Target: PI3K-δ (p110δ/p85α) (Homo sapiens (Human), UniProt O00329)
Sequence (O00329 whole entry, species assumed): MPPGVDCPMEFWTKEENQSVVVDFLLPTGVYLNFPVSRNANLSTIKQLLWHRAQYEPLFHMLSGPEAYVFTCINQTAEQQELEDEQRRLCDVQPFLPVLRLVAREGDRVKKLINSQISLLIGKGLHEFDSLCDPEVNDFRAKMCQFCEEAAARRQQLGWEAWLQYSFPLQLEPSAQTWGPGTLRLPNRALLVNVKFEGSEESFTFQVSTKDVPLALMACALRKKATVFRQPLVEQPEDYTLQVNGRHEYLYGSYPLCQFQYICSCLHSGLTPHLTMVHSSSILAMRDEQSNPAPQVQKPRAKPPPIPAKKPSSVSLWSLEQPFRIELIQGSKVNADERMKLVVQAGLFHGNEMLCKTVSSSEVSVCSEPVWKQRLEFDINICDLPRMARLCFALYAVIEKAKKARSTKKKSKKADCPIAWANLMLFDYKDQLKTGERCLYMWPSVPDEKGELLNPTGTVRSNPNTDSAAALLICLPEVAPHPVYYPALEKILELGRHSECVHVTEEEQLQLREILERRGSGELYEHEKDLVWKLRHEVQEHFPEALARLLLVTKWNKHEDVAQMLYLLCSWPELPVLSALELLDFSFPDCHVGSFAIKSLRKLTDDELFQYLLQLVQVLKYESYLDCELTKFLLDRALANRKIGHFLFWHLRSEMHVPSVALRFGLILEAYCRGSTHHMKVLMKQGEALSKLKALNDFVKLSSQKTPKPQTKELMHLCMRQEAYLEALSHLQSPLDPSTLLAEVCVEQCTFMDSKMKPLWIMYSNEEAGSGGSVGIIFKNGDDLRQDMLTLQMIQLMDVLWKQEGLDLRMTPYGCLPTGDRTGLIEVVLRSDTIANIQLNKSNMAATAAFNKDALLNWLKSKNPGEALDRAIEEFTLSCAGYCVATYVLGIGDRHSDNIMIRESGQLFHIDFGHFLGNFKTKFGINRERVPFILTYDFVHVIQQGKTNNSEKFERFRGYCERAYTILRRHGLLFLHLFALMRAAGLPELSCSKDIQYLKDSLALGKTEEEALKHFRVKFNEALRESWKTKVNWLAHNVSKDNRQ
Sequence (P27986 whole entry partner, species assumed): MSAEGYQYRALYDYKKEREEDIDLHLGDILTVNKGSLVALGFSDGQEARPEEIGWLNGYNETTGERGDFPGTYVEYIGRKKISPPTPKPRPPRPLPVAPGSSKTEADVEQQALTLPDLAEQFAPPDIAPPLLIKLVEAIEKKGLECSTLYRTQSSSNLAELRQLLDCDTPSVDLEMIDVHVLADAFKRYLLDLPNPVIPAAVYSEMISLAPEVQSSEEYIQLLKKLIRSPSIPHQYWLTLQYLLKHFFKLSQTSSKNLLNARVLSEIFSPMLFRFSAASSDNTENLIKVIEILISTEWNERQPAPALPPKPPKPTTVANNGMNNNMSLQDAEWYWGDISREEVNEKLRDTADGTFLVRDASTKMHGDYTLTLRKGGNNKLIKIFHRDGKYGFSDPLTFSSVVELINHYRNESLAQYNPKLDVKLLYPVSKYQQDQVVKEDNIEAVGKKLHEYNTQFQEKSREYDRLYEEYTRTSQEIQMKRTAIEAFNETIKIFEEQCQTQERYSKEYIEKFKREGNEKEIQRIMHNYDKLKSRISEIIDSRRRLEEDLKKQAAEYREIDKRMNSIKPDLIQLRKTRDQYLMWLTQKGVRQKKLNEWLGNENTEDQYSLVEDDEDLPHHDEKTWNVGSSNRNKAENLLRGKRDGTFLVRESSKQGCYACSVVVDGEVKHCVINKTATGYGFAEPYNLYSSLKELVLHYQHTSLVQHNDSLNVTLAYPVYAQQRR
Experiment: Transcreener KINASE Assay, fluorescent determination of PI3K enzyme activity;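 further: ADP formed by the kinase detected via far-red competitive fluorescence polarization immunoassay after 80 min room-temperature reaction, inhibition relative to 2% DMSO wells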
Assay type: biochemical
Conditions: at 1 μM; read-out: PI3K-δ IH % (inhibition rate)
label 1 means recorded inhibition at 1 µM is 40% or above; label 0 means it is below 40%.

These solved cases illustrate the format of a correct answer.
>>> class("C[C@@H](Nc1ncnc(N)c1C#N)c1cc2ncc(Cl)n2nc1-c1ccccn1 [Compound 7]")
"label 0"
>>> class("C[C@H](Nc1ncnc(N)c1C#N)c1cc2ncc(Cl)n2nc1-c1ccc2ccn(C)c2c1 [Compound 76]")
"label 1"
>>> class("CCC(Nc1ncnc2[nH]cnc12)c1cc2ncc(Cl)n2nc1-c1ccccc1 (stereo not shown) [Compound 14]")
"label 1"
>>> class("C[C@@H](Nc1ncnc(N)c1C#N)c1cc2ncc(Cl)n2nc1-c1ccc2scnc2c1 [Compound 75]")
"label 0"

IN: Is inhibition at 1 µM for COc1cc(-c2c(N)ncnc2N[C@@H](C)c2cc3ncc(Cl)n3nc2-c2ccccc2)ccn1 [Compound 50] at or above 40%?
OUT: label 1

IN: Is inhibition at 1 µM for CC[C@@H](Nc1ncnc(N)c1C#N)c1cc2ncc(Cl)n2nc1-c1ccccc1 [Compound 5] at or above 40%?
OUT: label 1

IN: Is inhibition at 1 µM for C[C@H](Nc1ncnc(N)c1C(=O)N(C)C)c1cc2ncc(Cl)n2nc1-c1ccccc1 [Compound 56] at or above 40%?
OUT: label 0

IN: Is inhibition at 1 µM for C[C@H](Nc1nc(O)nc(N)c1C#N)c1cc2ncc(Cl)n2nc1-c1ccccc1 [Compound 55] at or above 40%?
OUT: label 1

IN: Is inhibition at 1 µM for C[C@H](Nc1nc(N)ncc1C#N)c1cc2ncc(Cl)n2nc1-c1ccccc1 [Compound 34] at or above 40%?
OUT: label 0
